Attribution: PubChem BioAssay

testedTarget: NADPH oxidase 4 (Homo sapiens) (UniProt Q9NPH5)
Sequence (Q9NPH5 whole entry, looked up): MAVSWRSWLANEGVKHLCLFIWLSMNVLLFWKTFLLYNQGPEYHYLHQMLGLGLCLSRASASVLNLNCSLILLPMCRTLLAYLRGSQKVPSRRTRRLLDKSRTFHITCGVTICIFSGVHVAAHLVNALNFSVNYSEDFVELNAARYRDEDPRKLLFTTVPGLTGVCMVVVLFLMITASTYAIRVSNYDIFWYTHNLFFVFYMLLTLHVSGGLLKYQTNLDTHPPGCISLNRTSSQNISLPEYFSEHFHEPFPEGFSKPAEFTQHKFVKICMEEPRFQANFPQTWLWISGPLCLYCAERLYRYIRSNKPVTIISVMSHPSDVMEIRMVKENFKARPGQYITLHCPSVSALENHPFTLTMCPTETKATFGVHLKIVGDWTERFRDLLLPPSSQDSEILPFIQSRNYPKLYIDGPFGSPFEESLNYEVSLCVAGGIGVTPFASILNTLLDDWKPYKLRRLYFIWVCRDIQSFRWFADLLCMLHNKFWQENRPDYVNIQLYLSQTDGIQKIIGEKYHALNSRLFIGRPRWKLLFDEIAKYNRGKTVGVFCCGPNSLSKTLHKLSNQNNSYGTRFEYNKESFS
protocolSummary: NOX4-dependent H2O2 signal modulators, primary screen, NOX inhibitor project, cell-based, HEK293-NOX4, tetracycline-induced, Amplex Red fluorescence (AID 1160)
conditionInfo: 45 min, higher = more signal, called active from +8 up or from −8 down
Returns one of rule met or rule not met; rule met when z-score is >= 0.2.

Example entries begin here.
{"molecule": "CCOC(=O)CCN1C(=O)[C@H]2[C@H]3[C@H](O)[C@H](O)CC(=NNC(=O)OCC)[C@@H]3CC[C@H]2C1=O", "classification": "rule met"}
{"molecule": "CO[C@@H]1C=CCC(=O)N2CCC[C@H]2C(=O)OC[C@H](C)C(=O)OC[C@H]1C", "classification": "rule met"}
{"molecule": "CC(C)=NOCc1ccc(-c2cn([C@@H]3COC[C@H]3O)nn2)cc1", "classification": "rule not met"}
{"molecule": "C[C@@H](ON=C1[C@H]2CCn3c(=O)n(-c4ccccc4)c(=O)n3[C@H]2[C@H](O)[C@@H]2O[C@H]12)c1cn([C@H](CO)Cc2ccccc2)nn1", "classification": "rule not met"}
{"molecule": "CC(C)CCN1CCc2nc(-c3ccccc3)c3c(c2C1)CO[C@@H](C)C3", "classification": "rule met"}

Input: Would you say CC(C)=NOC[C@@H](O)COCc1ccco1 shows z-score at minimum 0.2?
Output: rule not met

Input: Test whether the molecule O=C(NN=C1C[C@@H](O)[C@@H](O)[C@@H]2[C@@H]3C(=O)N(Cc4ccc5c(c4)OCO5)C(=O)[C@@H]3CC[C@H]12)OCc1ccccc1 records z-score of 0.2 or higher.
Output: rule not met

Input: Please tell me: is the molecule CC(C)C(=O)N[C@@H]1CCCN1C(=O)C=Cc1ccccc1 at or over 0.2 in terms of z-score?
Output: rule met

Input: # bool: z-score of C#CCCCON=C1C[C@@H](O)[C@@H](O)[C@@H]2[C@@H]3C(=O)N(C4CCCCC4)C(=O)[C@@H]3CC[C@H]12 >= 0.2
Output: rule not met

Input: Can CCOC(=O)NN=C1C[C@@H](O)[C@@H](O)[C@@H]2[C@@H]3C(=O)N(Cc4ccc5c(c4)OCO5)C(=O)[C@@H]3CC[C@@H]12 be said to have z-score at or above 0.2?
Output: rule met

Input: z-score >= 0.2 for CC(=O)OC[C@H]1O[C@H](C#CC(C)(C)C)C=C[C@@H]1OC(C)=O ?
Output: rule met

Input: Determine whether this molecule has z-score no lower than 0.2: CO[C@H]1COC(=O)[C@H](C)NC(=O)CC=C[C@@H](C)[C@H](OC)COC(=O)CC=C[C@@H]1C
Output: rule not met

Input: Has C[C@@H](c1ccccc1)N1C(=O)[C@H]2[C@H]3[C@H](O)[C@H](O)CC(=O)[C@@H]3CC[C@H]2C1=O a recorded z-score greater than or equal to 0.2?
Output: rule met

Input: Exam item: decide whether the reported z-score for CC(C)=NO[C@@H](C)c1cc(-c2c(C)cc(C)cc2C)no1 is at least 0.2.
Output: rule not met

Input: Reported z-score at or above 0.2? Cc1cc2c(nc1C)CCCN2CC(C)ON=C[C@@H](C)[C@H](OCc1ccccc1)C(C)C (stereo partly specified)
Output: rule not met

Input: Does COC(=O)[C@H](C)NC(=O)CCC1CC(OC(=O)NCCc2ccc(F)cc2)CC2(CCCC(COC(=O)NCCCN3CCCC3=O)O2)O1 (stereo partly specified) have a reported z-score of at least 0.2?
Output: rule not met

====

Tested on: Lefty1
protocolSummary: Lefty1 binders on small-molecule microarrays, primary screen, biochemical, small-molecule microarray, 635/667 nm fluorescence (AID 1139)
conditionInfo: small-molecule microarray binding, fluorescence 635/667; higher = more signal
I'd appreciate it if you could supply composite z-score values for the items below.
Give bare numbers.

{"compound": "CCOC(=O)NN=C1C[C@@H](O)[C@@H](O)[C@@H]2[C@@H]3C(=O)N(Cc4ccccc4)C(=O)[C@@H]3CC[C@@H]12", "propertyLabel": "composite z-score", "resultNumber": 0.665}
{"compound": "CC(C)=CCCC(C)=CCON=C1C[C@@H](O)[C@@H](O)[C@@H]2[C@@H]3C(=O)N([C@@H](C)c4ccccc4)C(=O)[C@@H]3CC[C@H]12", "propertyLabel": "composite z-score", "resultNumber": 0.581}
{"compound": "CC(C)=NO[C@@H](C)c1cc(-c2c(C)cc(C)cc2C)no1", "propertyLabel": "composite z-score", "resultNumber": 0.0782}
{"compound": "CO[C@H]1COC(=O)[C@H](C)NC(=O)CC=C[C@@H](C)[C@H](OC)COC(=O)CC=C[C@@H]1C", "propertyLabel": "composite z-score", "resultNumber": 1.62}
{"compound": "CCN1C(=O)[C@H]2[C@H]3[C@H](O)[C@H](O)CC(=NNC(=O)OCc4ccc(OC)cc4)[C@H]3CC[C@H]2C1=O", "propertyLabel": "composite z-score", "resultNumber": 0.107}
{"compound": "CC(C)C(=O)N[C@@H]1CCCN1C(=O)C=Cc1ccccc1", "propertyLabel": "composite z-score", "resultNumber": 0.813}
{"compound": "C#CCCCON=C1C[C@@H](O)[C@@H](O)[C@@H]2[C@@H]3C(=O)N(C4CCCCC4)C(=O)[C@@H]3CC[C@H]12", "propertyLabel": "composite z-score", "resultNumber": 0.112}
{"compound": "CO[C@@H]1C=CCC(=O)N2CCC[C@H]2C(=O)OC[C@H](C)C(=O)OC[C@H]1C", "propertyLabel": "composite z-score", "resultNumber": 0.864}
{"compound": "COc1ccc(COC(=O)NN=C2C[C@@H](O)[C@@H](O)[C@@H]3[C@@H]4C(=O)N(C(C)(C)C)C(=O)[C@@H]4CC[C@H]23)cc1", "propertyLabel": "composite z-score", "resultNumber": 0.281}
{"compound": "CCOC(=O)NN=C1C[C@@H](O)[C@@H](O)[C@@H]2[C@@H]3C(=O)N(Cc4ccc5c(c4)OCO5)C(=O)[C@@H]3CC[C@@H]12", "propertyLabel": "composite z-score", "resultNumber": 0.225}

Each compound below has a reported value. Please supply its composite z-score.
1. CCOC(=O)CCN1C(=O)[C@H]2[C@H]3[C@H](O)[C@H](O)CC(=NNC(=O)OCC)[C@@H]3CC[C@H]2C1=O
2. CCOC(=O)[C@H](CC(C)C)NC(=O)CCC1CC(OC(=O)NCc2cccc3ccccc23)CC2(CCCC(COC(=O)NCc3ccccc3)O2)O1 (stereo partly specified)
3. CC(C)=NOC[C@@H](O)COCc1ccco1
4. CC(=O)OC[C@H]1O[C@H](C#CC(C)(C)C)C=C[C@@H]1OC(C)=O

Output:
1: -0.0407; 2: 0.275; 3: -0.181; 4: 1.22

Below are some compounds; for each one, tell me its composite z-score.
1. O=C(NN=C1C[C@@H](O)[C@@H](O)[C@@H]2[C@@H]3C(=O)N(Cc4ccc5c(c4)OCO5)C(=O)[C@@H]3CC[C@H]12)OCc1ccccc1
2. CCOC(=O)[C@H](Cc1ccccc1)NC(=O)CCC1CC(OC(=O)NCc2cccc3ccccc23)CC2(CCCC(COC(=O)NCCCN3CCCC3=O)O2)O1 (stereo partly specified)

Output:
1: -0.418; 2: 0.539

====

protocolSummary: A549 lung cancer cell viability effects, profiling panel, resazurin fluorescence, 24 h, PK04 Diversity Set (AID 1171); also: test concentration not given here
conditionInfo: higher = more signal, called active from +8 up or from −8 down
Exercise: for every item that follows, state its recorded z-score.
Numbers only.

{"compoundStructure": "CC(C)=CCCC(C)=CCON=C1C[C@@H](O)[C@@H](O)[C@@H]2[C@@H]3C(=O)N([C@@H](C)c4ccccc4)C(=O)[C@@H]3CC[C@H]12", "resultNumber": -1.38}
{"compoundStructure": "CC(C)=NOC[C@@H](O)COCc1ccco1", "resultNumber": -0.736}
{"compoundStructure": "CCCNC(=O)OC[C@H]1O[C@H](CCON=C(C)CCC(=O)OC[C@H]2O[C@H](C#Cc3ccccc3)C=C[C@@H]2Oc2ccc(C)cc2)C=C[C@@H]1Oc1ccc(OC)cc1", "resultNumber": 0.835}
{"compoundStructure": "O=C1[C@H]2[C@H]3[C@H](O)[C@H](O)CC(=NOCc4ccccc4)[C@H]3CC[C@H]2C(=O)N1Cc1ccccc1", "resultNumber": 0.51}
{"compoundStructure": "CCCNC(=O)OC[C@H]1O[C@H](CCON=C(C)CCN2CCc3nc(-c4ccccc4)c(-c4ccccc4)cc3C2)C=C[C@@H]1Oc1ccc(OC)cc1", "resultNumber": 0.444}
{"compoundStructure": "CC(C)CON=C1C[C@@H](O)[C@@H](O)[C@@H]2[C@@H]3C(=O)N(c4cccc(Oc5ccccc5)c4)C(=O)[C@@H]3CC[C@H]12", "resultNumber": -0.0819}

For each of the compounds below, state z-score.
1. C[C@@H](ON=C1[C@H]2CCn3c(=O)n(-c4ccccc4)c(=O)n3[C@H]2[C@H](O)[C@@H]2O[C@H]12)c1cn([C@H](CO)Cc2ccccc2)nn1
2. C#CCCCON=C1C[C@@H](O)[C@@H](O)[C@@H]2[C@@H]3C(=O)N(C4CCCCC4)C(=O)[C@@H]3CC[C@H]12
3. Cc1ccc(S(=O)(=O)N[C@H]2COC(=O)[C@@H](C)COC(=O)[C@H](C)NC(=O)CC=C[C@H]2C)cc1
4. COc1ccc(COC(=O)NN=C2C[C@@H](O)[C@@H](O)[C@@H]3[C@@H]4C(=O)N(C(C)(C)C)C(=O)[C@@H]4CC[C@H]23)cc1
5. CCOC(=O)NN=C1C[C@@H](O)[C@@H](O)[C@@H]2[C@@H]3C(=O)N(Cc4ccc5c(c4)OCO5)C(=O)[C@@H]3CC[C@@H]12

Output:
[-0.847, 0.108, 1.57, -0.581, 0.0533]
